Source: ChEMBL document CHEMBL5727796

tgt: Toll-like receptor 7 (Homo sapiens, UniProt Q9NYK1)
Sequence (Q9NYK1 whole entry): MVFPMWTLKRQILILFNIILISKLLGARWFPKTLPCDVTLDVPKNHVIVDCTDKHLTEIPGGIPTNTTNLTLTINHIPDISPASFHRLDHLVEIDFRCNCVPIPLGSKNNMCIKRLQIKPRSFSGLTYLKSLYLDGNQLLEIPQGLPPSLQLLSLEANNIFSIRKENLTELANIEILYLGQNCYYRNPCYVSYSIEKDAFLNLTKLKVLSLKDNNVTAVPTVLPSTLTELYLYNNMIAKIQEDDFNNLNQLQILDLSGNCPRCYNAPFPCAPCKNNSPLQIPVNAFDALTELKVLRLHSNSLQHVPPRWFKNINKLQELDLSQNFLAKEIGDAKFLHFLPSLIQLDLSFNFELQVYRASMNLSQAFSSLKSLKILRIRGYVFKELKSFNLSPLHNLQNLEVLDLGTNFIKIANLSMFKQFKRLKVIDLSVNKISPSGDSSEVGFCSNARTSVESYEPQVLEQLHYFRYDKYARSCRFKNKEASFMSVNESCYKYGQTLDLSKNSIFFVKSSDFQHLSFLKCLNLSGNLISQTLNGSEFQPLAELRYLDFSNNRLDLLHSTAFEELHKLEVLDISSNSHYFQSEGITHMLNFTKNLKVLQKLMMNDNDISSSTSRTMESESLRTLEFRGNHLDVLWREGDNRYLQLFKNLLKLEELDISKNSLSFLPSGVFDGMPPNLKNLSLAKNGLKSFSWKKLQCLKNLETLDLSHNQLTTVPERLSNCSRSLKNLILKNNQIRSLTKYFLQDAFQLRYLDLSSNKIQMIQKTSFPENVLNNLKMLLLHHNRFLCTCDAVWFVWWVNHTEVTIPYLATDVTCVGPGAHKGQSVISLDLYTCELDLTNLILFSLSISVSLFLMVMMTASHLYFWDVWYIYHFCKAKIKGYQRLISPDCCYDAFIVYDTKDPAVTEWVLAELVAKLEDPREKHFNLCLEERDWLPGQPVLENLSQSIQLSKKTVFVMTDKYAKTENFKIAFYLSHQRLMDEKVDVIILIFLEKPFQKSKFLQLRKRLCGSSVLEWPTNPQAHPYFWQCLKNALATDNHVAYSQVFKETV
procedure text: Inhibition of the Activation Assay: As human TLR7 expressing cell line, HEK293 cell line was bought from IMGENEX Corporation (TLR7/NF-ηB/SEAPorter™ HEK293 cell), which is human embryonic kidney cell line and stably expresses full-length human TLR7 gene and secreted alkaline phosphatase (SEAP) reporter gene under the transcriptional control of an NE-ηB response element. The TLR7/NF-ηB/SEAPorter™ HEK293 cell was cultivated with DMEM containing 10% fetal bovine serum (FBS) and 10 μg/mL blasticidin S at 37° C. in the presence of 5% CO2.
pIC50: −log10 of the molar value.
result type: pIC50

Some entries whose results are on file:
Give the measured pIC50 of COc1nc(C)c2nc(-c3cncc(F)c3)n(Cc3ccc(C4=CCN(C(=O)OC(C)(C)C)CC4)cc3F)c2n1 .
6.54

Which measured pIC50 value corresponds to COc1nc(C)c2nc(-c3cnccn3)n(Cc3ccc(C4CN5CCC4CC5)cc3F)c2n1 (configuration not stated) ?
7.37

Which pIC50 is listed for CCOc1nc(N)c2nc(-c3cncc(F)c3)n(Cc3ccc(OCCN4CCN(C)CC4)nc3)c2n1 ?
6.55

Reported pIC50 for COc1nc(C)c2nc(-c3cccnc3)n(Cc3ccc(O[C@@H]4CN5CCC4CC5)cc3F)c2n1 : what is it?
7.15

[P] CCOc1nc(N)c2nc(-c3cncc(F)c3)n(Cc3ccc(OCCN4CCCC4)nc3)c2n1
[Q] CCOc1nc(C)c2nc(-c3cncc(F)c3)n(Cc3ccc(CN4C[C@@H]5C[C@H]4CN5CC)nc3)c2n1
[R] COc1nc(C)c2nc(-c3cncc(F)c3)n(Cc3ccc(C4CCN(C)C4)cc3)c2n1 (configuration not stated)
Hey, can you sort those compounds up there by pIC50, smallest first? Reply format: the labels, ordered as requested.
P, Q, R
